Notes on pKi obtained with 5-hydroxytryptamine receptor 2A (Homo sapiens, UniProt P28223).
Units for pKi: none; it is -log10 of a concentration expressed in mol/L.

Some compounds with recorded pKi:
structure.notation: NC(=O)NCCCCCCN1CCN(c2cccc(Cl)c2)CC1
pKi: 6.71
//
structure.notation: O=c1n(CCCCCCN2CCN(c3cccc4cccnc34)CC2)nc2ccccn12
pKi: 5.66
//
structure.notation: O=C(NCCCCCCn1nc2ccccn2c1=O)N1CCN(c2cccc(Cl)c2)CC1
pKi: 6.28

Entry O=c1n(CCCCCCN2CCN(c3cccc(Cl)c3Cl)CC2)nc2ccccn12 ; pKi = 7.33

Entry O=S1(=O)N(CCCCCCN2CCN(c3cccc(Cl)c3)CC2)c2cccc3c2N1CCC3 ; pKi = 6.55

Entry NS(=O)(=O)NCCCCCCN1CCN(c2cccc(Cl)c2)CC1 ; pKi = 6.48

Entry O=c1n(CCCCCCN2CCN(c3cccc(C(F)(F)F)c3)CC2)nc2ccccn12 ; pKi = 6.54

====

target.desc: 5-hydroxytryptamine receptor 1A (Homo sapiens, UniProt P08908)
Sequence (P08908 whole entry): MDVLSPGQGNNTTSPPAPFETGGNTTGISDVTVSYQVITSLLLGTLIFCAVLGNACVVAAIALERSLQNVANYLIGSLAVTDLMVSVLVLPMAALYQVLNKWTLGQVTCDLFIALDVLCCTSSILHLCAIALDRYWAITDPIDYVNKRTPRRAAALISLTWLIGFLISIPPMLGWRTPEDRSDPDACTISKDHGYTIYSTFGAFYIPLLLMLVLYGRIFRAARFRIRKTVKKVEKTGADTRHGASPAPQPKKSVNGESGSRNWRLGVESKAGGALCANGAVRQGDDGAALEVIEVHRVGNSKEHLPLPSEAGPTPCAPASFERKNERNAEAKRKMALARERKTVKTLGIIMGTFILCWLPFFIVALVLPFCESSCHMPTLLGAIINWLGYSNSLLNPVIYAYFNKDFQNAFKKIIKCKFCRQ
protocol.text: Displacement of [3H]-[…] from human full length 5-HT1AR expressed in HEK293 cells by radioligand binding assay
Type: cell-based
Param label: returns True when Ki < 40 nM, returns False otherwise, including exact equality.

Worked examples, 3 compounds total:
structure.notation: O=c1n(CCCCCCN2CCN(c3cccc(Cl)c3Cl)CC2)nc2ccccn12
assigned.label: True
//
structure.notation: O=c1n(Cc2ccc(CN3CCN(c4ccc(Cl)cc4)CC3)cc2)nc2ccccn12
assigned.label: False
//
structure.notation: O=S1(=O)N(CCCCCCN2CCN(c3cccc(Cl)c3)CC2)c2cccc3c2N1CCC3
assigned.label: False

Then this compound:
Hello, is Ki of the following compound strictly smaller than 40 nM? S=c1n(CCCCCCN2CCN(c3cccc(Cl)c3)CC2)c2cccc3c2n1CCC3
False

====

target.desc: D(2) dopamine receptor (Homo sapiens, UniProt P14416)
Sequence (P14416 whole entry): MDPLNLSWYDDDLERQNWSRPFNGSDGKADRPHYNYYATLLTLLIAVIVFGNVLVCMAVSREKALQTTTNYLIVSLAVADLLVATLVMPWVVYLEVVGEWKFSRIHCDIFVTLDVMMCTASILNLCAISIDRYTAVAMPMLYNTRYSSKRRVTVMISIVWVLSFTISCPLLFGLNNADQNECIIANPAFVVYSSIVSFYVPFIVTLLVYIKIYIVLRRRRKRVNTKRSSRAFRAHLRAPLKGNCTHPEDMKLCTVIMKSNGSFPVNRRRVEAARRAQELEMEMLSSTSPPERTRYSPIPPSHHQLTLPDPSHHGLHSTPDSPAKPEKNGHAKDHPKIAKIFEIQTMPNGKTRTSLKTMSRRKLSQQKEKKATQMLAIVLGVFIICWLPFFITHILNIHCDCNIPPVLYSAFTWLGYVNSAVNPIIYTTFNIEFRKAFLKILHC
protocol.text: Displacement of [3H]-raclopride from human full length D2L receptor expressed in HEK293 cells by radioligand binding assay
Format: cell-based
pKi: −log10 of the molar value.
Returns Yes if the recorded pKi is greater than or equal to 7, and No otherwise.

Worked examples, 3 molecules total:
molecule: O=c1n(CCCCCCN2CCN(c3cccc4ccccc34)CC2)nc2ccccn12
assigned.label: Yes

molecule: NS(=O)(=O)NCCCCCCN1CCN(c2cccc(Cl)c2)CC1
assigned.label: No

molecule: O=c1n(CCCCCCN2CCN(c3cccc(Cl)c3)CC2)c2cccc3c2n1CCC3
assigned.label: Yes

Then this molecule:
Could you verify whether the entry O=c1n(CC2CCC(CN3CCN(c4cccc(Cl)c4)CC3)CC2)nc2ccccn12 (stereo not given) shows pKi of no less than 7?
No

====

target.desc: 5-hydroxytryptamine receptor 6 (Homo sapiens)
Sequence (P50406 whole entry): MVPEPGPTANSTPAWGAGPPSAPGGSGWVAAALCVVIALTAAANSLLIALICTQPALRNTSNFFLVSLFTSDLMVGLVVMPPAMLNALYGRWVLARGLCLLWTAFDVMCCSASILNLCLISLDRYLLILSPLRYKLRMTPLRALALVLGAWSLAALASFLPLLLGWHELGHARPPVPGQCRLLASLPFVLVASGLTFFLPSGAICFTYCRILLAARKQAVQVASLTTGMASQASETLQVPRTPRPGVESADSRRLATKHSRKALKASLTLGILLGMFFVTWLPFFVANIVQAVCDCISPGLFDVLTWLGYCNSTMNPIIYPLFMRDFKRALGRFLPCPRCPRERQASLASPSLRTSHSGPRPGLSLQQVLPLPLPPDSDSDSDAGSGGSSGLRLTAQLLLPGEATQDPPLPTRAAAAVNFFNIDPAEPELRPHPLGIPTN
protocol.text: Displacement of [3H]-LSD from human full length 5HT6R expressed in HEK293 cells by radioligand binding assay
Type: cell-based
Param label: returns MET when Ki < 2000 nM, returns NOT MET otherwise, including exact equality.

Worked examples, 6 compounds total:
compound: O=c1n(Cc2ccc(CN3CCN(c4ccc(Cl)cc4)CC3)cc2)nc2ccccn12
assigned.label: NOT MET
//
compound: O=c1n(CCCCCCN2CCN(c3cccc4cccnc34)CC2)nc2ccccn12
assigned.label: NOT MET
//
compound: NS(=O)(=O)NCCCCCCN1CCN(c2cccc(Cl)c2)CC1
assigned.label: MET
//
compound: NC(=O)N1CCN(c2cccc(Cl)c2)CC1
assigned.label: NOT MET
//
compound: NC(=O)NCCCCCCN1CCN(c2cccc(Cl)c2)CC1
assigned.label: NOT MET
//
compound: O=c1n(CCCCCCN2CCN(c3cccc(Cl)c3)CC2)c2cccc3c2n1CCC3
assigned.label: MET

Hello, is Ki of the following compound strictly smaller than 2000 nM? O=c1n(CCCCCCN2CCN(c3cccc4c3OCCO4)CC2)nc2ccccn12
NOT MET

Hello, is Ki of the following compound strictly smaller than 2000 nM? O=c1n(CC2CCC(CN3CCN(c4cccc(Cl)c4)CC3)CC2)nc2ccccn12 (stereo not given)
NOT MET

Hello, is Ki of the following compound strictly smaller than 2000 nM? O=c1n(Cc2ccc(CN3CCN(c4cccc(Cl)c4)CC3)cc2)nc2ccccn12
MET

Hello, is Ki of the following compound strictly smaller than 2000 nM? O=C(NCCCCCCn1nc2ccccn2c1=O)N1CCN(c2cccc(Cl)c2)CC1
NOT MET

====

Notes on Ki obtained with 5-hydroxytryptamine receptor 7 (Homo sapiens, UniProt P34969).
Sequence (P34969 whole entry): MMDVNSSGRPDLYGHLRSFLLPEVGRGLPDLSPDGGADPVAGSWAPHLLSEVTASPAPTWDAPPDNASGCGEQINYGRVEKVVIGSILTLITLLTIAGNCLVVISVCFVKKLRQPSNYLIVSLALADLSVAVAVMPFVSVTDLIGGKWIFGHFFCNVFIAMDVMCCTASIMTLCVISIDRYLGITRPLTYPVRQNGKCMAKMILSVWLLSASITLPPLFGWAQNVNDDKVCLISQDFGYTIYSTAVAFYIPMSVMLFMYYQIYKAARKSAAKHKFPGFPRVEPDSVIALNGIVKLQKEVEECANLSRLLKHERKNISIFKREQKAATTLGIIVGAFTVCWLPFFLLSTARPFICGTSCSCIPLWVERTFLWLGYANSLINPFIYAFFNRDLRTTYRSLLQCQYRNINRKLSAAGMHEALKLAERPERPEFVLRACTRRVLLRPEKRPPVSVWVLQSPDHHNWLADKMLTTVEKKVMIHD
Quick note: number first, unit second.

Some molecules with recorded Ki:
molecule: O=c1n(CCCCCCN2CCN(c3cccc(Cl)c3Cl)CC2)nc2ccccn12
Ki: 0.243 µM
--
molecule: O=c1n(CCCCCCN2CCN(c3cccc4cccnc34)CC2)nc2ccccn12
Ki: 0.655 µM
--
molecule: O=C(NCCCCCCn1nc2ccccn2c1=O)N1CCN(c2cccc(Cl)c2)CC1
Ki: 0.462 µM
--
molecule: O=c1n(CCCCCCN2CCN(c3cccc(C(F)(F)F)c3)CC2)nc2ccccn12
Ki: 1.07 µM
--
molecule: O=c1n(Cc2ccc(CN3CCN(c4ccc(Cl)cc4)CC3)cc2)nc2ccccn12
Ki: 201 µM

Entry O=c1n(CC2CCC(CN3CCN(c4cccc(Cl)c4)CC3)CC2)nc2ccccn12 (configuration not stated) ; Ki = 0.257 µM

Entry S=c1n(CCCCCCN2CCN(c3cccc(Cl)c3)CC2)c2cccc3c2n1CCC3 ; Ki = 0.171 µM

====

Here the recorded pKi is given for each entry.
target.desc: UniProt P14416
protocol.text: Displacement of [3H]-raclopride from human full length D2L receptor expressed in HEK293 cells by radioligand binding assay
Assay type: cell-based
Units for pKi: none; it is -log10 of a concentration expressed in mol/L.

Some compounds with recorded pKi:
structure.notation: O=S1(=O)N(CCCCCCN2CCN(c3cccc(Cl)c3)CC2)c2cccc3c2N1CCC3
reported: 6.60
//
structure.notation: O=c1n(CCCCCCN2CCN(c3cccc4c3OCCO4)CC2)nc2ccccn12
reported: 7.22
//
structure.notation: O=c1n(Cc2ccc(CN3CCN(c4ccc(Cl)cc4)CC3)cc2)nc2ccccn12
reported: 5.86
//
structure.notation: NC(=O)N1CCN(c2cccc(Cl)c2)CC1
reported: 3.94

Entry O=c1n(CCCCCCN2CCN(c3cccc(C(F)(F)F)c3)CC2)nc2ccccn12 ; pKi = 7.21

====

target.desc: UniProt:P14416
protocol.text: Displacement of [3H]-raclopride from human full length D2L receptor expressed in HEK293 cells by radioligand binding assay
Assay type: cell-based
pKi: −log10 of the molar value.
Returns label 1 if the recorded pKi is greater than or equal to 7, and label 0 otherwise.

Worked examples, 2 compounds total:
structure.notation: O=C(NCCCCCCn1nc2ccccn2c1=O)N1CCN(c2cccc(Cl)c2)CC1
assigned.label: label 0
--
structure.notation: NC(=O)NCCCCCCN1CCN(c2cccc(Cl)c2)CC1
assigned.label: label 0

Then this compound:
Could you verify whether the entry O=c1n(CCCCCCN2CCN(c3cccc(Cl)c3Cl)CC2)nc2ccccn12 shows pKi of no less than 7?
label 1

====

target.desc: UniProt:P08908
protocol.text: Displacement of [3H]-[…] from human full length 5-HT1AR expressed in HEK293 cells by radioligand binding assay
Assay type: cell-based
measurement.kind: pKi
Units for pKi: none; it is -log10 of a concentration expressed in mol/L.

Some molecules with recorded pKi:
molecule: O=c1n(CC2CCC(CN3CCN(c4cccc(Cl)c4)CC3)CC2)nc2ccccn12 (stereo not given)
reported: 7.51
//
molecule: NS(=O)(=O)NCCCCCCN1CCN(c2cccc(Cl)c2)CC1
reported: 7.68
//
molecule: O=c1n(CCCCCCN2CCN(c3cccc4cccnc34)CC2)nc2ccccn12
reported: 8.52
//
molecule: O=C(NCCCCCCn1nc2ccccn2c1=O)N1CCN(c2cccc(Cl)c2)CC1
reported: 7.46
//
molecule: O=c1n(Cc2ccc(CN3CCN(c4cccc(Cl)c4)CC3)cc2)nc2ccccn12
reported: 7.28

Entry O=c1n(CCCCCCN2CCN(c3cccc4c3OCCO4)CC2)nc2ccccn12 ; pKi = 9.00

Entry NC(=O)N1CCN(c2cccc(Cl)c2)CC1 ; pKi = 5.15

Entry O=c1n(CCCCCCN2CCN(c3cccc(Cl)c3)CC2)c2cccc3c2n1CCC3 ; pKi = 7.13

Entry O=c1n(CCCCCCN2CCN(c3cccc4ccccc34)CC2)nc2ccccn12 ; pKi = 8.22

Entry O=c1n(CCCCCCN2CCN(c3cccc(C(F)(F)F)c3)CC2)nc2ccccn12 ; pKi = 7.77

The origin of these recorded values is ChEMBL document CHEMBL5154833.
